- Test system: GST
- Experiment notes: SPOT array
- Measurement conditions: median of control spots 978
Experimental endpoint: SPOT intensity

Some binders with recorded SPOT intensity:
{"Binder": "NSVPIMPTLPPRPYI", "SPOT intensity": 1}
{"Binder": "KRRTSLFPWLHKPGI", "SPOT intensity": 0}
{"Binder": "VRVKKRPLIRPLNSS", "SPOT intensity": 1}
{"Binder": "RRSKSLPITPKSIFN", "SPOT intensity": 2}

[a] ISRRRLPVIMHRLKM
[b] KRKRFNLLLPKPYLT
For the two items a and b , which reports the higher SPOT intensity value? Mark your answer with the label of the selected entry.
b

[a] PELAPKREAPKPPAN
[b] QTMRQAPKRPDADVA
[c] FPPKRKPLLRPQRSD
Order field: SPOT intensity | Direction: descending (largest first) Please write the labels in the order that was asked for.
c, b, a
(c: 2, b: 1, a: 0)

Measured values drawn from paper PMC2756588 for this set.
